- study system: human recombinant adrenergic α1D receptor (Homo sapiens, UniProt P25100)
- Construct: expressed in transfected cells; host or cells: human embryonic kidney (HEK-293) cells
- Sequence (P25100 1-572): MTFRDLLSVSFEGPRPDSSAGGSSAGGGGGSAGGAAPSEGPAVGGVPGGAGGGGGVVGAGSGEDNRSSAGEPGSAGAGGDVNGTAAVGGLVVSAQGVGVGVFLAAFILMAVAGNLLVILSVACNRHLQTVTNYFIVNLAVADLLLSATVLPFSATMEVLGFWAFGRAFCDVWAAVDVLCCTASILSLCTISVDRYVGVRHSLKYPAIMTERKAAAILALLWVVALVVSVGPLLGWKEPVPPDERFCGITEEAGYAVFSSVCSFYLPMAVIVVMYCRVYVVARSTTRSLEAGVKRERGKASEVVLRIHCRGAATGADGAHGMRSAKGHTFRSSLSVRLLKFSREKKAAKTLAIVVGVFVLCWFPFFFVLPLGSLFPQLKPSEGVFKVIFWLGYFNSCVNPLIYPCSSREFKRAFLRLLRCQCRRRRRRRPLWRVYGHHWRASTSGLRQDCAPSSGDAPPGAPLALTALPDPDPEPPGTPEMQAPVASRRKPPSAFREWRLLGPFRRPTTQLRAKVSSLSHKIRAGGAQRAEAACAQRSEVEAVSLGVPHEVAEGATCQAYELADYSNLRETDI
- test method notes: Adrenergic α1D radioligand binding assay
- condition label: 0.1 μM; [3H]Prozosin specific binding; read-out: Percent Inhibition of ligand binding, Adrenergic (0.1 μM ligand conc.) α1D
- Method: To evaluate in radioligand binding assays the activity of compounds of the invention, human recombinant adrenergic α1D receptor expressed in human embryonic kidney (HEK-293) cells [Kenny, B. A. et al. Br. J. Pharmacol. (1995), 115(6):981] in a 50 mM Tris-HCl buffer, pH 7.4, was used. Compounds of invention were incubated with 0.6 nM [^3H]Prozosin for 60 min. at 25° C. […] Receptor proteins were filtered and washed, the filters were then counted to determine [^3H]Prozosin specifically bound. […]
experimental endpoint: inhibition at 0.1 µM (%)

* COc1ccc(/C(C)=C/n2c3c(c4cc(C)ccc42)C2CCN(C3)C2)cc1 (stereo not drawn) | -1
* C/C(=C\n1c2c(c3cc(C)ccc31)C1CCN(C2)C1)c1ccc(Cl)cc1 (stereo not drawn) | 9
* C/C(=C\n1c2c(c3cc(C)ccc31)C1CCN(C2)C1)c1ccncc1 (stereo not drawn) | 8
* C/C(=C\n1c2c(c3cc(C)ccc31)C1CCN(C2)C1)c1ccccc1F (stereo not drawn) | -3
* C/C(=C\n1c2c(c3cc(C)ccc31)C1CCN(C2)C1)c1ccc(Cl)cc1Cl (stereo not drawn) | -6
* Cc1ccc2c(c1)c1c(n2C(=O)Cc2ccc(Cl)cc2)CN2CCC1C2 (stereo not drawn) | -2

----------
- study system: human recombinant histamine H1 receptor (Homo sapiens)
- Sequence (P35367 whole entry): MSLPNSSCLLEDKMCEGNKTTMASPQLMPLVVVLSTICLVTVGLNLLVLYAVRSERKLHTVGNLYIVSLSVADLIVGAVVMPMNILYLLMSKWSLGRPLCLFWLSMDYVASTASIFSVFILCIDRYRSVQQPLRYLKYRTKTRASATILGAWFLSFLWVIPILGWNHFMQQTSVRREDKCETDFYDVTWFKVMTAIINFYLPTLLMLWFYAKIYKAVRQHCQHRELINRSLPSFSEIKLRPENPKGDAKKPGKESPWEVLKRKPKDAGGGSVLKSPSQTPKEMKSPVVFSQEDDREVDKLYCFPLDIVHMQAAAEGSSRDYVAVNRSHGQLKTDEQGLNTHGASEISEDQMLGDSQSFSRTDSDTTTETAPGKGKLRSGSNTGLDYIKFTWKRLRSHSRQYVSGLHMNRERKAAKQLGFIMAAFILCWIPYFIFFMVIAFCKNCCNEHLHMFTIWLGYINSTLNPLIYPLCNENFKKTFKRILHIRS
- test method notes: Histamine H1 radioligand binding assay
- condition label: [3H]Pyrilamine specific binding, read-out: Percentage Inhibition, Histamine Binding (1 μM) H1
Could you please classify the records by inhibition at 1 µM using these ranges: lo = under 20%, mid = from 20% up to 60%, hi = 60% and over

• C/C(=C\n1c2c(c3cc(C)ccc31)C1CCN(C2)C1)c1ccc(F)cc1 (stereo not drawn) [Compound 22] = mid
• Cc1ccc2c(c1)c1c(n2C(=O)Cc2ccc(Cl)cc2)CN2CCC1C2 (stereo not drawn) [Compound 36] = mid
• C/C(=C\n1c2c(c3cc(C)ccc31)C1CCN(C2)C1)c1ccncc1 (stereo not drawn) [Compound 44] = mid
• COc1ccc(/C(C)=C/n2c3c(c4cc(C)ccc42)C2CCN(C3)C2)cc1 (stereo not drawn) [Compound 45] = mid
• Cc1ccc2c(c1)c1c(n2CC(=O)N2CCOCC2)CN2CCC1C2 (stereo not drawn) [Compound 26] = lo
• Cc1ccc2c(c1)c1c(n2C(=O)Cc2ccc(F)cc2)CN2CCC1C2 (stereo not drawn) [Compound 43] = lo
• Cc1ccc(C(O)Cn2c3c(c4cc(C)ccc42)C2CCN(C3)C2)cc1 (stereo not drawn) [Compound 5] = mid
• Cc1ccc2c(c1)c1c(n2CC(=O)N2CCCCC2)CN2CCC1C2 (stereo not drawn) [Compound 7] = lo
• Cc1ccc2c(c1)c1c(n2CC(C)(O)c2ccc(Cl)cc2Cl)CN2CCC1C2 (stereo not drawn) [Compound 14] = mid
• Cc1ccc2c(c1)c1c(n2CCc2nc(-c3ccccc3)cs2)CN2CCC1C2 (stereo not drawn) [Compound 19] = hi
• COc1ccc(C(O)Cn2c3c(c4cc(C)ccc42)C2CCN(C3)C2)cc1F (stereo not drawn) [Compound 6] = hi
• Cc1ccc2c(c1)c1c(n2CCc2ccccn2)CN2CCC1C2 (stereo not drawn) [Compound 11] = hi
• Cc1ccc2c(c1)c1c(n2CC(=O)c2ccccc2)CN2CCC1C2 (stereo not drawn) [Compound 21] = mid
• Cc1ccc2c(c1)c1c(n2CC(C)(O)c2ccc(F)cc2F)CN2CCC1C2 (stereo not drawn) [Compound 17] = lo
• C/C(=C\n1c2c(c3cc(C)ccc31)C1CCN(C2)C1)c1ccc(Cl)c(Cl)c1 (stereo not drawn) [Compound 40] = mid

----------
- study system: human recombinant histamine H2 receptor (Homo sapiens, UniProt P25021)
- Construct: expressed in transfected cells; host or cells: Chinese hamster ovary (CHO) K1 cells
- Sequence (P25021 whole entry): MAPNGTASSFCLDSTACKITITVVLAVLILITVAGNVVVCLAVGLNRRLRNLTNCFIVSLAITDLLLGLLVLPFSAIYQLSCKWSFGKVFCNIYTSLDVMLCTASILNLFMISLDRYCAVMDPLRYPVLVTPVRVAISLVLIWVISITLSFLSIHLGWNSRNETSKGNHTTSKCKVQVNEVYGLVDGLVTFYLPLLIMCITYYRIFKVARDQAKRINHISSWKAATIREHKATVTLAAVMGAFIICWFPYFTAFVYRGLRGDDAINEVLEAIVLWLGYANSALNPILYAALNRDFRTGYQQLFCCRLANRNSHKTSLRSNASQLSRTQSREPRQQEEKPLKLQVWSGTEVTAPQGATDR
- test method notes: Histamine H2 radioligand binding assay
- condition label: [125I]Aminopotentidine specific binding, read-out: Percentage Inhibition, Histamine Binding (1 μM) H2
experimental endpoint: inhibition at 1 µM (%)

• C/C(=C\n1c2c(c3cc(C)ccc31)C1CCN(C2)C1)c1ccc(F)c(F)c1 (centres unmarked) = 20
• Cc1ccc2c(c1)c1c(n2CC(=O)c2ccc(F)cc2)CN2CCC1C2 (centres unmarked) = 18
• Cc1ccc2c(c1)c1c(n2CC(=O)c2ccc(Cl)cc2)CN2CCC1C2 (centres unmarked) = 19
• COc1ccc(/C(C)=C/n2c3c(c4cc(C)ccc42)C2CCN(C3)C2)cc1 (centres unmarked) = 21
• Cc1ccc2c(c1)c1c(n2CC(=O)N2CCNCC2)CN2CCC1C2 (centres unmarked) = -3
• Cc1ccc2c(c1)c1c(n2CC(=O)N(C)C)CN2CCC1C2 (centres unmarked) = -3
• Cc1ccc2c(c1)c1c(n2CC(=O)N2CCOCC2)CN2CCC1C2 (centres unmarked) = -1
• C/C(=C\n1c2c(c3cc(C)ccc31)C1CCN(C2)C1)c1ccc(Cl)c(Cl)c1 (centres unmarked) = 39
• Cc1ccc2c(c1)c1c(n2CC(C)(O)c2ccc(F)c(Cl)c2)CN2CCC1C2 (centres unmarked) = 16
• Cc1ccc2c(c1)c1c(n2CCc2ccccn2)CN2CCC1C2 (centres unmarked) = -2
• Cc1ccc2c(c1)c1c(n2CC(C)(O)c2ccc(F)cc2)CN2CCC1C2 (centres unmarked) = 8
• C/C(=C\n1c2c(c3cc(C)ccc31)C1CCN(C2)C1)c1ccncc1 (centres unmarked) = -3
• Cc1ccc2c(c1)c1c(n2CC(O)c2ccccc2)CN2CCC1C2 (centres unmarked) = 5
• Cc1ccc(C(C)(O)Cn2c3c(c4cc(C)ccc42)C2CCN(C3)C2)cc1 (centres unmarked) = 2
• COc1ccc(C(O)Cn2c3c(c4cc(C)ccc42)C2CCN(C3)C2)cc1OC (centres unmarked) = 2
• Cc1ccc2c(c1)c1c(n2C(=O)Cc2ccc(Cl)cc2)CN2CCC1C2 (centres unmarked) = 20
• Cc1ccc2c(c1)c1c(n2CC(C)(O)c2ccc(Cl)c(Cl)c2)CN2CCC1C2 (centres unmarked) = 8
• Cc1ccc2c(c1)c1c(n2CCc2ccc(C)nc2)CN2CCC1C2 (centres unmarked) = 4
• Cc1ccc2c(c1)c1c(n2CC(C)(O)c2ccc(Cl)cc2Cl)CN2CCC1C2 (centres unmarked) = 24
• Cc1ccc2c(c1)c1c(n2CC(C)(O)c2ccc(F)c(F)c2)CN2CCC1C2 (centres unmarked) = 13

----------
- study system: human recombinant serotonin (5-Hydroxytryptamine) 5-HT7 receptor (Homo sapiens, UniProt P34969)
- Sequence (P34969 whole entry): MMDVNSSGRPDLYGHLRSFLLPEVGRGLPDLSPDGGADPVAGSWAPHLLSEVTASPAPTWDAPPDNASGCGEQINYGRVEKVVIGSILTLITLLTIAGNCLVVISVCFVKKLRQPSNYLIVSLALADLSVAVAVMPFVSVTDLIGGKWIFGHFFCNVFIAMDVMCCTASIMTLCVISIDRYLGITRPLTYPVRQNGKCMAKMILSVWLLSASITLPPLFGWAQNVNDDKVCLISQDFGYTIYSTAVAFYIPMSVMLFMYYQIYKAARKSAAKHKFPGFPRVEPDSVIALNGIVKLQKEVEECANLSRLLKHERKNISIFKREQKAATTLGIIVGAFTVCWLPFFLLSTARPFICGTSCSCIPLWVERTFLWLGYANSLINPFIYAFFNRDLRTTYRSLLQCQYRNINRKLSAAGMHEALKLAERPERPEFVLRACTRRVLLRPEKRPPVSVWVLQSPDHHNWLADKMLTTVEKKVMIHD
- test method notes: Serotonin 5-HT7 radioligand binding assay
- condition label: [3H]LSD specific binding, read-out: Percent Inhibition of ligand binding, Serotonin (1 μM ligand concentration) 5-HT7
inhibition at 1 µM values for the molecules below.
experimental endpoint: inhibition at 1 µM (%)

- Cc1ccc2c(c1)c1c(n2C#Cc2ccc(Cl)cc2)CN2CCC1C2 (stereo not drawn) [Compound 35]: 35
- C/C(=C/n1c2c(c3cc(C)ccc31)C1CCN(C2)C1)c1ccccc1F (stereo not drawn) [Compound 37]: 93
- Cc1ccc2c(c1)c1c(n2C(=O)Cc2ccc(F)cc2)CN2CCC1C2 (stereo not drawn) [Compound 43]: 41
- COc1ccc(/C(C)=C/n2c3c(c4cc(C)ccc42)C2CCN(C3)C2)cc1 (stereo not drawn) [Compound 45]: 93
- Cc1ccc2c(c1)c1c(n2C(=O)Cc2ccc(Cl)cc2)CN2CCC1C2 (stereo not drawn) [Compound 36]: 75
- C/C(=C\n1c2c(c3cc(C)ccc31)C1CCN(C2)C1)c1ccc(Cl)c(Cl)c1 (stereo not drawn) [Compound 40]: 95

The reported numbers originate from patent US9271971B2.
